tested on: 857933-349-R-J2-PDC complex spheroids, viability; test: Anticancer human tumor 857933-349-R-J2-PDC patient-derived colon adenocarcinoma cell line growth inhibition [GQUAD]; conditions: second compound 0.0316 µM; first compound 0.0316 µM; stronger effect = lower value
viability, T/C values for the molecules below.
Readout name: viability, T/C (%)

| Molecule | Display unit | Recorded value |
| --- | --- | --- |
| CCc1c2c(nc3ccc(O)cc13)-c1cc3c(c(=O)n1C2)COC(=O)[C@]3(O)CC + Cc1[nH]c2ccc(F)cc2c1-c1nc2c3cccnc3c3ncccc3c2[nH]1 | % | 24.8 |
| O=C(NO)c1cnc(N2CCN(S(=O)(=O)c3ccc4ccccc4c3)CC2)nc1 + Cc1[nH]c2ccc(F)cc2c1-c1nc2c3cccnc3c3ncccc3c2[nH]1 | % | 107 |
| O=C(c1cc(Cc2n[nH]c(=O)c3ccccc23)ccc1F)N1CCN(C(=O)C2CC2)CC1 + Cc1[nH]c2ccc(F)cc2c1-c1nc2c3cccnc3c3ncccc3c2[nH]1 | % | 108 |
| C=CC(=O)N1CCN(c2nc(=O)n(-c3c(C)ccnc3C(C)C)c3nc(-c4c(O)cccc4F)c(F)cc23)C(C)C1 (stereo not given) + Cc1cnc(CNC(=O)c2c(=O)c3ccc(N4CCCN(C)CC4)nc3n3c2sc2ccccc23)cn1 | % | 106 |
| COc1ccc([C@@H](O)c2cc(-c3ncnc4cc(N5CCOCC5)ccc34)c(F)cc2Cl)nn1 + Cc1cnc(CNC(=O)c2c(=O)c3ccc(N4CCCN(C)CC4)nc3n3c2sc2ccccc23)cn1 | % | 95.5 |

----------
tested on: 857933-349-R-J2-PDC complex spheroids, viability; assay: Anticancer human tumor 857933-349-R-J2-PDC cell line growth inhibition [GQUAD]; settings: second compound 3.16 µM; first compound 3.16 µM; stronger effect = lower value;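 note: spheroids exposed to compounds for one week before readout; percent viability relative to vehicle DMSO wells taken as 100%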
// NB: equality with 80% counts as not satisfied; only viability, T/C strictly below is satisfied

| Molecule | Measurement target | Answer label |
| --- | --- | --- |
| O=c1[nH]cc(F)c(=O)[nH]1 + Cc1[nH]c2ccc(F)cc2c1-c1nc2c3cccnc3c3ncccc3c2[nH]1 | 857933-349-R-J2-PDC complex spheroids, viability | satisfied |
| Cc1cccc(N(C)C(=O)C2C(O)CCN2c2nc(C)cc(C(F)(F)F)c2C#N)c1 (stereo not given) + CN(C)c1ccc(Nc2c3ccc(NC(=O)CCN4CCCC4)cc3nc3cc(NC(=O)CCN4CCCC4)ccc23)cc1 | 857933-349-R-J2-PDC complex spheroids, viability | not satisfied |
| COc1ccc([C@@H](O)c2cc(-c3ncnc4cc(N5CCOCC5)ccc34)c(F)cc2Cl)nn1 + Cc1[nH]c2ccc(F)cc2c1-c1nc2c3cccnc3c3ncccc3c2[nH]1 | 857933-349-R-J2-PDC complex spheroids, viability | satisfied |
| COc1cc(C2c3cc4c(cc3C(OC3OC5COC(C)OC5C(O)C3O)C3COC(=O)C23)OCO4)cc(OC)c1O (stereo not given) + Cc1cnc(CNC(=O)c2c(=O)c3ccc(N4CCCN(C)CC4)nc3n3c2sc2ccccc23)cn1 | 857933-349-R-J2-PDC complex spheroids, viability | satisfied |
| C=CCn1c(=O)c2cnc(Nc3ccc(N4CCN(C)CC4)cc3)nc2n1-c1cccc(C(C)(C)O)n1 + Cc1cnc(CNC(=O)c2c(=O)c3ccc(N4CCCN(C)CC4)nc3n3c2sc2ccccc23)cn1 | 857933-349-R-J2-PDC complex spheroids, viability | satisfied |
| C=CC(=O)N1CCN(c2nc(=O)n(-c3c(C)ccnc3C(C)C)c3nc(-c4c(O)cccc4F)c(F)cc23)C(C)C1 (stereo not given) + CN(C)c1ccc(Nc2c3ccc(NC(=O)CCN4CCCC4)cc3nc3cc(NC(=O)CCN4CCCC4)ccc23)cc1 | 857933-349-R-J2-PDC complex spheroids, viability | not satisfied |
| CC(C)(O)C1CCC(Nc2ccc3ncc(-c4cccc(C(F)(F)F)c4)n3n2)CC1 (stereo not given) + CN(C)c1ccc(Nc2c3ccc(NC(=O)CCN4CCCC4)cc3nc3cc(NC(=O)CCN4CCCC4)ccc23)cc1 | 857933-349-R-J2-PDC complex spheroids, viability | satisfied |
| COc1ccc([C@@H](O)c2cc(-c3ncnc4cc(N5CCOCC5)ccc34)c(F)cc2Cl)nn1 + Cc1cnc(CNC(=O)c2c(=O)c3ccc(N4CCCN(C)CC4)nc3n3c2sc2ccccc23)cn1 | 857933-349-R-J2-PDC complex spheroids, viability | satisfied |
